STUDY TARGET: T1, APJ receptor (human, UniProt P35414 1-380)
T1 sequence (looked up): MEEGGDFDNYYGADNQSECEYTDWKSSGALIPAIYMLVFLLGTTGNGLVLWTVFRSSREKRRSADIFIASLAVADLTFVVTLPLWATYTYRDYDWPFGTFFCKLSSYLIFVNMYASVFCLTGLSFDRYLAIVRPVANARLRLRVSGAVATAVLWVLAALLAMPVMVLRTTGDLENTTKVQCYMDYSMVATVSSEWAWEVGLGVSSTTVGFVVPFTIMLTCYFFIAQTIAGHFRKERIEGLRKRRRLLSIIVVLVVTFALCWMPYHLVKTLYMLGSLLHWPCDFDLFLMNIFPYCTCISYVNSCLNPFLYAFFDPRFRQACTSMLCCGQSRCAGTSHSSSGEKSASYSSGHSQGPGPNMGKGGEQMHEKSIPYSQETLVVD
EXPERIMENT: cell-based or functional assay
[ ]: non-standard residue; d: D form. pGlu = O=C1CC[C@@H](C(=O)O)N1; dNle = CCCC[C@@H](N)C(=O)O; Nle = CCCC[C@H](N)C(=O)O
PROPERTY: hAPJ Ca^2+ Flux EC50 (nM)

[I] [pGlu]RPRL[dA]H[dK]GP[Nle][dA][dF]-OH [pE-R-P-R-L-a-H-k-G-P-Nle-a-f-OH]
[II] [pGlu]RPRL[dA][dH]KGP[dNle][dA][dF]-OH [pE-R-P-R-L-a-h-K-G-P-nle-a-f-OH]
[III] [pGlu]RPRL[dA]HKGP[Nle][dA]F-OH [pE-R-P-R-L-a-H-K-G-P-Nle-a-F-OH]
[IV] ERPRLAHKGPLXF (pE at 1; D-Ala at 6; D-Nle at 11; D-Abu at 12; D-Phe at 13) [pE-R-P-R-L-a-H-K-G-P-nle-abu-f-OH]
Query string: Descending by hAPJ Ca^2+ Flux EC50 please, for everything listed above. Provide the labels, sequenced as the question asks.
Result string: I, II, III, IV

FYI, the data here is from patent US10005829B2.
